Entry source: paper PMC4118853

- STUDY TARGET: T1, MBP-Orf K48A (Bacteriophage lambda, UniProt P03765 1-146, K48A)
- T1 sequence: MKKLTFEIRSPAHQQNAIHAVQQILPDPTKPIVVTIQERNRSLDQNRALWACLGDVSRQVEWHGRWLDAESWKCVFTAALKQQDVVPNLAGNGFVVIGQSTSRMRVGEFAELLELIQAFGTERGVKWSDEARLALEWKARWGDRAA
- EXPERIMENT SUMMARY: fluorescence anisotropy; apparent, per dimer; EMSA: 50 mM Tris-HCl pH 8.0, 5 mM EDTA (or 1 mM MgCl2), 1 mM DTT, 5% glycerol, 100 ug/ml BSA, on ice 15 min, 4% PAGE; anisotropy: 100 mM Tris-HCl pH 7.0, 10 nM
- PARTICULARS: protein: recombinant; tags: N-terminal MBP; chain copies: 2; label: 3'-fluorescein; single strand
pKd: −log10 of the molar value.

[
  {
    "BINDER": "SS60-fluorescein (ssDNA) DNA: TTTGGTCTAACTTTACCGCTACTAAATGCCGCGGATTGGTTTCGCTGAATCAGGTTATTA",
    "pKd": 6.21
  }
]
